- System: 885724-159-R-J1-PDC KRAS PDC multicell spheroid viability
- assay_explanation: Anticancer human tumor 885724-159-R-J1-PDC patient-derived pancreatic adenocarcinoma cell line growth inhibition [KRAS2]
- experimental_setup: second compound 10 µM; first compound 0.1 µM; stronger effect = lower value
Answer each item with its documented viability, T/C.
Record the value in %, omitting the unit from your answer.

Q: Please look up its viability, T/C: Cn1nccc1Nc1nccc(-c2cc3c(s2)C(C)(C)N(CCN2CCOCC2)C3=O)n1 + CC1OCC2(CCN(c3cnc(Sc4ccnc(N)c4Cl)c(N)n3)CC2)C1N
A: 51.4

Q: Please look up its viability, T/C: CC1COCCN1c1cc(-c2ccnn2C)c2ccnc(-c3ccn[nH]3)c2n1 (stereo not drawn) + C=CC(=O)N1CCN(c2nc(=O)n(-c3c(C)ccnc3C(C)C)c3nc(-c4c(O)cccc4F)c(F)cc23)C(C)C1
A: 55.9

Q: Please look up its viability, T/C: COc1cc2nccc(Oc3ccc(NC(=O)C4(C(=O)Nc5ccc(F)cc5)CC4)cc3)c2cc1OC + C=CC(=O)N1CCN(c2nc(=O)n(-c3c(C)ccnc3C(C)C)c3nc(-c4c(O)cccc4F)c(F)cc23)C(C)C1
A: 72.2

====

- System: 885724-159-R-J1-PDC KRAS PDC multicell spheroid viability
- assay_explanation: Anticancer human tumor 885724-159-R-J1-PDC cell line growth inhibition [KRAS2];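 note: spheroids exposed to agents for 7 days before readout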
- experimental_setup: curve of first compound; second compound 10 µM
outcome_measure: IC50 (nM)
Record the value in nM, omitting the unit from your answer.

Q: Please look up its IC50: CC(C)n1nc(-c2ccc3oc(N)nc3c2)c2c(N)ncnc21 + CC1OCC2(CCN(c3cnc(Sc4ccnc(N)c4Cl)c(N)n3)CC2)C1N
A: 13.1

Q: Please look up its IC50: Cn1nccc1Nc1nccc(-c2cc3c(s2)C(C)(C)N(CCN2CCOCC2)C3=O)n1 + CC1OCC2(CCN(c3cnc(Sc4ccnc(N)c4Cl)c(N)n3)CC2)C1N
A: 105

====

- Tested on: 885724-159-R-J1-PDC KRAS PDC multicell spheroid viability
- assay_explanation: Anticancer human tumor 885724-159-R-J1-PDC cell line growth inhibition [KRAS2];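 note: spheroids exposed to agents for 7 days before readout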
- experimental_setup: second compound 1 µM; first compound 0.01 µM; stronger effect = lower value
- Text: Multicellular complex tumor spheroid response to RAS pathway inhibitors in combination with a targeted agents in patient-derived cell lines with oncogenic KRAS variants from multiple cancer types A high-throughput screen of multi-cell type tumor spheroids was designed to identify active combinations of targeted small molecules and KRAS pathway inhibitors. […] Compounds. […] If the clinical Cmax for an agent had not been determined, the highest concentration tested was 10 microM. […]
Criterion: viability, T/C strictly under 60%. Met: Fulfilled. Not met: Not fulfilled.

Q: Given the entry CC(C)n1nc(-c2ccc3oc(N)nc3c2)c2c(N)ncnc21 + CC1OCC2(CCN(c3cnc(Sc4ccnc(N)c4Cl)c(N)n3)CC2)C1N , would its reported viability, T/C be below 60%?
A: Fulfilled

Q: Given the entry CC(=O)Nc1cccc(-n2c(=O)n(C3CC3)c(=O)c3c(Nc4ccc(I)cc4F)n(C)c(=O)c(C)c32)c1 + CC1OCC2(CCN(c3cnc(Sc4ccnc(N)c4Cl)c(N)n3)CC2)C1N , would its reported viability, T/C be below 60%?
A: Fulfilled

Q: Given the entry Cn1ncnc1[C@H]1c2n[nH]c(=O)c3cc(F)cc(c23)N[C@@H]1c1ccc(F)cc1 + CC1OCC2(CCN(c3cnc(Sc4ccnc(N)c4Cl)c(N)n3)CC2)C1N , would its reported viability, T/C be below 60%?
A: Not fulfilled

Q: Given the entry CCN1CCN(Cc2ccc(Nc3ncc(F)c(-c4cc(F)c5nc(C)n(C(C)C)c5c4)n3)nc2)CC1 + C=CC(=O)N1CCN(c2nc(=O)n(-c3c(C)ccnc3C(C)C)c3nc(-c4c(O)cccc4F)c(F)cc23)C(C)C1 , would its reported viability, T/C be below 60%?
A: Not fulfilled

Q: Given the entry Cn1ncnc1[C@H]1c2n[nH]c(=O)c3cc(F)cc(c23)N[C@@H]1c1ccc(F)cc1 + C=CC(=O)N1CCN(c2nc(OCC3CCCN3C)nc3c2CCN(c2cccc4cccc(C)c24)C3)CC1CC#N , would its reported viability, T/C be below 60%?
A: Not fulfilled

====

Answer each item with its documented IC50.
- Test system: 885724-159-R-J1-PDC KRAS PDC multicell spheroid viability
- assay_explanation: Anticancer human tumor 885724-159-R-J1-PDC cell line growth inhibition [KRAS2];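 note: spheroids exposed to agents for 7 days before readout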
- experimental_setup: curve of first compound; second compound 1 µM

Q: Please look up its IC50: CCNC(=O)CC1N=C(c2ccc(Cl)cc2)c2cc(OC)ccc2-n2c(C)nnc21 (stereo unspecified) + C=CC(=O)N1CCN(c2nc(OCC3CCCN3C)nc3c2CCN(c2cccc4cccc(C)c24)C3)CC1CC#N
A: 855 nM

Q: Please look up its IC50: CC1COCCN1c1cc(-c2ccnn2C)c2ccnc(-c3ccn[nH]3)c2n1 (stereo unspecified) + CC1OCC2(CCN(c3cnc(Sc4ccnc(N)c4Cl)c(N)n3)CC2)C1N
A: 852 nM

Q: Please look up its IC50: CN(C)C/C=C/C(=O)Nc1cc2c(Nc3ccc(F)c(Cl)c3)ncnc2cc1O[C@H]1CCOC1 + C=CC(=O)N1CCN(c2nc(=O)n(-c3c(C)ccnc3C(C)C)c3nc(-c4c(O)cccc4F)c(F)cc23)C(C)C1
A: > 100 nM

Q: Please look up its IC50: O=C(c1cc(Cc2n[nH]c(=O)c3ccccc23)ccc1F)N1CCN(C(=O)C2CC2)CC1 + C=CC(=O)N1CCN(c2nc(OCC3CCCN3C)nc3c2CCN(c2cccc4cccc(C)c24)C3)CC1CC#N
A: > 10000 nM

Q: Please look up its IC50: Cn1nccc1Nc1nccc(-c2cc3c(s2)C(C)(C)N(CCN2CCOCC2)C3=O)n1 + CC1OCC2(CCN(c3cnc(Sc4ccnc(N)c4Cl)c(N)n3)CC2)C1N
A: 223 nM

Q: Please look up its IC50: CN(C)C/C=C/C(=O)Nc1cc2c(Nc3ccc(F)c(Cl)c3)ncnc2cc1O[C@H]1CCOC1 + C=CC(=O)N1CCN(c2nc(OCC3CCCN3C)nc3c2CCN(c2cccc4cccc(C)c24)C3)CC1CC#N
A: > 100 nM

Q: Please look up its IC50: CN(C)C/C=C/C(=O)Nc1cc2c(Nc3ccc(F)c(Cl)c3)ncnc2cc1O[C@H]1CCOC1 + CNCc1ccccc1-c1csc(C(C)Nc2nc(C)nc3cc(OC)c(OC)cc23)c1
A: > 100 nM

Q: Please look up its IC50: Cn1ncnc1[C@H]1c2n[nH]c(=O)c3cc(F)cc(c23)N[C@@H]1c1ccc(F)cc1 + CNCc1ccccc1-c1csc(C(C)Nc2nc(C)nc3cc(OC)c(OC)cc23)c1
A: > 100 nM

Q: Please look up its IC50: CC(=O)Nc1cccc(-n2c(=O)n(C3CC3)c(=O)c3c(Nc4ccc(I)cc4F)n(C)c(=O)c(C)c32)c1 + CC1OCC2(CCN(c3cnc(Sc4ccnc(N)c4Cl)c(N)n3)CC2)C1N
A: 0.328 nM

Q: Please look up its IC50: Cn1ncnc1[C@H]1c2n[nH]c(=O)c3cc(F)cc(c23)N[C@@H]1c1ccc(F)cc1 + C=CC(=O)N1CCN(c2nc(OCC3CCCN3C)nc3c2CCN(c2cccc4cccc(C)c24)C3)CC1CC#N
A: > 100 nM

Q: Please look up its IC50: O=C(c1cc(Cc2n[nH]c(=O)c3ccccc23)ccc1F)N1CCN(C(=O)C2CC2)CC1 + COc1cc2nc(C)nc(NC(C)c3cc(N)cc(C(F)(F)F)c3)c2cc1OC1CCOC1
A: > 10000 nM

Q: Please look up its IC50: CC1COCCN1c1cc(-c2ccnn2C)c2ccnc(-c3ccn[nH]3)c2n1 (stereo unspecified) + COc1cc2nc(C)nc(NC(C)c3cc(N)cc(C(F)(F)F)c3)c2cc1OC1CCOC1
A: > 3160 nM

Q: Please look up its IC50: Cn1ncnc1[C@H]1c2n[nH]c(=O)c3cc(F)cc(c23)N[C@@H]1c1ccc(F)cc1 + C=CC(=O)N1CCN(c2nc(=O)n(-c3c(C)ccnc3C(C)C)c3nc(-c4c(O)cccc4F)c(F)cc23)C(C)C1
A: > 100 nM

Q: Please look up its IC50: CC1COCCN1c1cc(-c2ccnn2C)c2ccnc(-c3ccn[nH]3)c2n1 (stereo unspecified) + CNCc1ccccc1-c1csc(C(C)Nc2nc(C)nc3cc(OC)c(OC)cc23)c1
A: > 3160 nM

Q: Please look up its IC50: CN(C)C/C=C/C(=O)Nc1cc2c(Nc3ccc(F)c(Cl)c3)ncnc2cc1O[C@H]1CCOC1 + COc1cc2nc(C)nc(NC(C)c3cc(N)cc(C(F)(F)F)c3)c2cc1OC1CCOC1
A: > 100 nM

Q: Please look up its IC50: CC(C)n1nc(-c2ccc3oc(N)nc3c2)c2c(N)ncnc21 + CNCc1ccccc1-c1csc(C(C)Nc2nc(C)nc3cc(OC)c(OC)cc23)c1
A: 58.3 nM

Q: Please look up its IC50: CC1COCCN1c1cc(-c2ccnn2C)c2ccnc(-c3ccn[nH]3)c2n1 (stereo unspecified) + C=CC(=O)N1CCN(c2nc(OCC3CCCN3C)nc3c2CCN(c2cccc4cccc(C)c24)C3)CC1CC#N
A: 298 nM

Q: Please look up its IC50: CC1(C)CCC(CN2CCN(c3ccc(C(=O)NS(=O)(=O)c4ccc(NCC5CCOCC5)c([N+](=O)[O-])c4)c(Oc4cnc5[nH]ccc5c4)c3)CC2)=C(c2ccc(Cl)cc2)C1 + CNCc1ccccc1-c1csc(C(C)Nc2nc(C)nc3cc(OC)c(OC)cc23)c1
A: 5300 nM

Q: Please look up its IC50: CCNC(=O)CC1N=C(c2ccc(Cl)cc2)c2cc(OC)ccc2-n2c(C)nnc21 (stereo unspecified) + CNCc1ccccc1-c1csc(C(C)Nc2nc(C)nc3cc(OC)c(OC)cc23)c1
A: > 10000 nM

Q: Please look up its IC50: CCN1CCN(Cc2ccc(Nc3ncc(F)c(-c4cc(F)c5nc(C)n(C(C)C)c5c4)n3)nc2)CC1 + C=CC(=O)N1CCN(c2nc(OCC3CCCN3C)nc3c2CCN(c2cccc4cccc(C)c24)C3)CC1CC#N
A: > 1000 nM

Q: Please look up its IC50: CCN1CCN(Cc2ccc(Nc3ncc(F)c(-c4cc(F)c5nc(C)n(C(C)C)c5c4)n3)nc2)CC1 + COc1cc2nc(C)nc(NC(C)c3cc(N)cc(C(F)(F)F)c3)c2cc1OC1CCOC1
A: > 1000 nM
